Reference source for all entries: patent US20120095032A1

# system_tested: HePTP (Homo sapiens)
# protocol_summary: HePTP HTS primary screen (colorimetric pNPP / Biomol Green)
# Assay type: biochemical
# condition_description: 20 μM compound; read-out: % Inhib. at 20 μM
Reported inhibition at 20 µM is given for each of the following molecules.
endpoint_name: inhibition at 20 µM (%)

>>> measurement("CCc1ccc(OCC(=O)NC2=CC(=O)/C(=C3/Nc4ccccc4O3)C=C2)cc1")
59
>>> measurement("Cc1nnc2sc(-c3ccc(NC(=O)c4ccc(-c5ccc(Cl)cc5Cl)o4)cc3)nn12")
102
>>> measurement("Cc1cc(C(=O)O)ccc1-n1c(C)ccc1C")
103
>>> measurement("COc1ccc(Cn2c(C)nc3c(c2=O)c2nc4ccccc4nc2n3Cc2ccco2)cc1")
104
>>> measurement("O=C(COC(=O)c1cccc(S(=O)(=O)N2CCN(c3ccccc3)CC2)c1)NCc1ccco1")
50.7
>>> measurement("O=C1CC(=O)N(Cc2ccco2)C(=O)N1")
84.9
>>> measurement("COC(=O)c1ccccc1NC(=O)c1noc2ccccc12")
81.2
>>> measurement("CCOC(=O)C(C)Sc1nc2c(c(=O)[nH]c(=O)n2C)n1C/C=C(/C)Cl (stereo not shown)")
55.4
>>> measurement("CCCCC[C@H](O)/C=C/[C@H]1C=CC(=O)[C@@H]1C/C=C\\CCCC(=O)O")
57.3
>>> measurement("N#Cc1c(N2CCCC2)nc(N)c2c(N)nc(N3CCCC3)cc12")
61.3

====

# system_tested: HePTP (Homo sapiens)
# Sequence (P35236 1-360): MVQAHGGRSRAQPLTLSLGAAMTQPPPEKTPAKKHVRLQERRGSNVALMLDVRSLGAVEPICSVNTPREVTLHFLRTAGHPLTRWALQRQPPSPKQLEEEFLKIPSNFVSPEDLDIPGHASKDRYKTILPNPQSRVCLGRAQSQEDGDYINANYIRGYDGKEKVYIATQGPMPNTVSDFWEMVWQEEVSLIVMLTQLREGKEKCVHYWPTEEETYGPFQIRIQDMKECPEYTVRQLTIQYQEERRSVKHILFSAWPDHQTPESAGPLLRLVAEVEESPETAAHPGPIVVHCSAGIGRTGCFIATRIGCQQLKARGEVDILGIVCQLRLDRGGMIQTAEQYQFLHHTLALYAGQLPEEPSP
# protocol_summary: HePTP dose-response confirmation screening
# Type: biochemical
# condition_description: Hill coefficient of the dose-response curve
endpoint_name: n / nH (Hill coefficient)

>>> measurement("c1coc(-c2nc(-c3ccco3)c(-c3ccco3)nc2-c2ccco2)c1 [2,3,5,6-tetrakis(2-furyl)pyrazine]")
2.26
>>> measurement("COc1ccc(OC)c(N2C(=O)[C@H]3C(c4ccccc4Cl)=NO[C@@H]3C2=O)c1")
2.27
>>> measurement("O=C1CC(=O)N(Cc2ccco2)C(=O)N1")
1.67
>>> measurement("COc1ccc(Cc2nnc(NC(=O)Cc3cccs3)s2)cc1")
2.33
>>> measurement("O=C(O)c1cccc(-n2cccc2/C=N/O)c1")
1.45
>>> measurement("Cc1cc(C(=O)O)ccc1-n1c(C)ccc1C")
2.09

====

# system_tested: HePTP (Homo sapiens)
# Sequence (P35236 1-360): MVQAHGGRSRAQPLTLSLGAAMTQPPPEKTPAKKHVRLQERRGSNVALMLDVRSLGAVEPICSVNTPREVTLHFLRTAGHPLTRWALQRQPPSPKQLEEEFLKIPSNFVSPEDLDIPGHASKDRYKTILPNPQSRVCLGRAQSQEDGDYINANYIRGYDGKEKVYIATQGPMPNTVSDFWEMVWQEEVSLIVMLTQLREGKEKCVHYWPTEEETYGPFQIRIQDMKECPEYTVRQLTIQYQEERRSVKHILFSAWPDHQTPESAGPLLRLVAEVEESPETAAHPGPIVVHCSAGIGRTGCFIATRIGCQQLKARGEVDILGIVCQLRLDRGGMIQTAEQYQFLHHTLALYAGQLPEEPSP
pIC50: −log10 of the molar value.
endpoint_name: pIC50

>>> measurement("Cc1cccc(Nc2nn3c(=O)c4ccccc4nc3s2)c1")
5.56
>>> measurement("O=C1CCCC2=C1C(c1ccco1)Nc1ccc3ccccc3c12 (centres unmarked)")
5.23
>>> measurement("COc1ccc2c(c1)=CC(=C1N=C(c3ccc(F)cc3)ON1)C(=O)N=2 (stereo in doubt)")
5.66
>>> measurement("O=C1Nc2ccccc2SC(c2ccccc2)C1O (centres unmarked)")
5.94
>>> measurement("CCn1c(SC(C)C(=O)O)nc2c(c1=O)C1=C(CCC1)C2 (centres unmarked)")
5.77

====

In this section, each of the compounds is paired with its reported inhibition at 20 µM.
# system_tested: HePTP (Homo sapiens)
# protocol_summary: HePTP HTS primary screen (colorimetric pNPP / Biomol Green)
# Type: biochemical
# condition_description: 20 μM compound; read-out: % Inhib. at 20 μM
Structures can show the parent of a compound that is named as a salt.
endpoint_name: inhibition at 20 µM (%)

>>> measurement("O=C(O)c1cccc(-n2cccc2/C=N/O)c1")
58.1
>>> measurement("c1ccc(CSc2nnc(-c3ccco3)c(-c3ccco3)n2)cc1")
53.9
>>> measurement("Cc1cc(C)n(-c2nc(Nc3ccccc3)nc(-n3nc(C)cc3C)n2)n1")
50.5
>>> measurement("Cc1ccc2c(c1)C1C=CCC1C(C(=O)O)N2 (stereo not drawn)")
102
>>> measurement("CCC1=NC2Sc3ccccc3C(=O)C2C(=O)N1Cc1ccco1 (stereo not drawn)")
79.4
>>> measurement("CN(C)c1ccc(-c2nn3c(-c4ccc(Cl)cc4Cl)nnc3s2)cc1")
64.3
>>> measurement("O=C(CCS(=O)(=O)c1ccc(Br)cc1)NCc1cccs1")
103
>>> measurement("Cc1cccc(Nc2nn3c(=O)c4ccccc4nc3s2)c1")
53.9
>>> measurement("Cn1cnnc1SCC(=O)Nc1sc2c(c1C(=O)ON)CCC2")
90.2
>>> measurement("C/C(N)=C(\\C#N)C(=O)CSc1nnc(Nc2c(C)cccc2C)s1")
77.9
>>> measurement("CC1(C)CCCN(C(=O)c2coc(=O)c(Br)c2)C1")
102
>>> measurement("c1coc(-c2nc(-c3ccco3)c(-c3ccco3)nc2-c2ccco2)c1")
74.1
>>> measurement("Cc1ccc(C)n1C(Cc1ccccc1)C(=O)O (stereo not drawn)")
102
>>> measurement("Cc1ccc2c(c1C)NC(C(=O)O)C1CC=CC21 (stereo not drawn)")
102
>>> measurement("O=C(O)c1ccccc1-c1ccc(/C=c2\\sc3nc4cc(Br)cnc4n3c2=O)o1")
102
>>> measurement("Cc1ccc(C)n1-c1cccc(C(=O)O)c1")
102
>>> measurement("O=C(O)c1cc(O)c2c(c1)C(=O)c1cccc(O)c1C2=O")
64.2
>>> measurement("Cn1nnnc1SCC1=C(C(=O)[O-])N2C(=O)[C@H](NC(=O)[C@H](O)c3ccccc3)[C@H]2SC1.[Na+]")
98
>>> measurement("CC(=O)OCC1=C(C(=O)[O-])N2C(=O)[C@H](NC(=O)Cc3cccs3)[C@H]2SC1.[Na+]")
96.2
>>> measurement("O=C1Nc2ccccc2SC(c2ccccc2)C1O (stereo not drawn)")
67.2
>>> measurement("CCOC(=O)c1ccc2c(c1)C1C=CCC1C(C(=O)O)N2 (stereo not drawn)")
103
>>> measurement("CCn1c(SCC(=O)O)nc2c(c1=O)C1=C(CCC1)C2")
102
>>> measurement("COc1ccc(Cc2nnc(NC(=O)Cc3cccs3)s2)cc1")
103
>>> measurement("CSc1nc(N(CCO)CCO)c2sc3nc(-c4ccco4)c4c(c3c2n1)CCC4")
62.5
>>> measurement("CC(C)CN(C(=O)COC(=O)c1cc2c(s1)CCC2)C1CCS(=O)(=O)C1 (stereo not drawn)")
58.7
>>> measurement("Cc1ccc(-c2nn3c(C)nnc3s2)cc1NC(=O)c1ccc(-c2ccc(Cl)cc2Cl)o1")
92.4
>>> measurement("O=C(O)C(O)c1ccco1 (stereo not drawn) [2-(2-Furyl)-2-hydroxy-acetic acid]")
100
>>> measurement("COc1ccc2c(c1)=CC(=C1N=C(c3ccccc3)ON1)C(=O)N=2 (stereo in doubt)")
77.1
>>> measurement("COc1ccc(Br)cc1/C=c1\\sc2nc(-c3ccco3)nn2c1=O")
95.3
>>> measurement("O=C(NCc1ccco1)c1c2c(nc3ccccc13)CCC2")
62
>>> measurement("O=C(Oc1ccccc1)c1ccc2c(c1)C1C=CCC1C(C(=O)O)N2 (stereo not drawn)")
96.4
>>> measurement("CC(C)Cn1c(N)c(C(=O)COC(=O)c2cc(-c3ccco3)nc3ccccc23)c(=O)n(C)c1=O")
89.7
>>> measurement("O=C(O)C1Nc2c(O)cccc2C2C=CCC12 (stereo not drawn)")
103
>>> measurement("COc1cccc(C(=O)NC2CC3CCCC(C2)N3CC(=O)Nc2ccccc2)c1 (stereo not drawn) [hydrochloride]")
103
>>> measurement("COc1ccc(OC)c(N2C(=O)[C@H]3C(c4ccccc4Cl)=NO[C@@H]3C2=O)c1")
85.1
>>> measurement("Cc1cc(NC(=O)Cc2cccs2)no1")
99.7
>>> measurement("COc1ccc2c(c1)=CC(=C1N=C(c3ccc(F)cc3)ON1)C(=O)N=2 (stereo in doubt)")
99.2
>>> measurement("Cc1c(N2C(=O)c3ccc4c5c(ccc(c35)C2=O)CC4)c(=O)n(-c2ccccc2)n1C")
93.1
>>> measurement("CCOC(=O)C1CCN(C(=O)Nc2ccc3nc(-c4ccco4)c(-c4ccco4)nc3c2)CC1")
103
